targetEntity: T1, human Otoraplin, residues 18-128 (human, UniProt Q9NRC9 18-128)
T1 construct: Otoraplin, human, UniProt Q9NRC9, residues 18-128; [U-15N]-enriched for the NMR titrations; also called Otoraplin (18-128); not shown: His-tag, N-terminal, cleaved
T1 sequence (looked up): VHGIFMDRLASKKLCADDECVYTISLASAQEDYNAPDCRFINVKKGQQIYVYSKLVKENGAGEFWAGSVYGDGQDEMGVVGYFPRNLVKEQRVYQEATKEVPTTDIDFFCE
experimentSummary: NMR titration; 1H-15N HSQC series of [U-15N]-Otoraplin with SOS1 (1149-1158) at protein:peptide ratios 1:0.5 to 1:50; PBS pH 7.4, 298 K; two-dimensional lineshape analysis (TITAN), two-state binding model
runParameters: both partners purified
measure: Kd (µM)
Answers are plain numbers, in µM.

**Query** What does the data say about its Kd? Entry: VPPPVPPRRR (peptide, UniProt Q07889 1149-1158, looked up, SOS1, residues 1149-1158; also called class II ligand; PPII class II ligand; source: synthetic peptide) [SOS1 (1149-1158), class II PPII helix peptide]
**Result** 1300
